Tested on: 699152-130-R-J1-PDC complex spheroid growth
Assay: Anticancer human tumor 699152-130-R-J1-PDC patient-derived pancreatic carcinoma cell line growth inhibition [AhR]
Conditions: second compound 0.1 µM; first compound 0.949 µM; active compounds read low
Excerpt: Multicellular complex tumor spheroid response to aryl hydrocarbon receptor antagonists in combination with a variety of drugs and investigational agents in selected tumor cell lines […] Compounds. […] If the clinical Cmax for an agent had not been determined, the highest concentration tested was 10 microM (Table 1). […]
Exercise: for every item that follows, state its recorded viability, T/C.

Example cases with answers are listed next.
O=C(C=Cn1cnc(-c2cc(C(F)(F)F)cc(C(F)(F)F)c2)n1)NNc1cnccn1 + Cc1cncc(-c2nc(NCCc3c[nH]c4ccccc34)c3ncn(C(C)C)c3n2)c1 : 69.4%
CCN(c1cc(-c2ccc(CN3CCOCC3)cc2)cc(C(=O)NCc2c(C)cc(C)[nH]c2=O)c1C)C1CCOCC1 + Cc1ccccc1N=Nc1ccc(NC(=O)c2ccnn2C)c(C)c1 : 109%
CCN(c1cc(-c2ccc(CN3CCOCC3)cc2)cc(C(=O)NCc2c(C)cc(C)[nH]c2=O)c1C)C1CCOCC1 + Cc1cncc(-c2nc(NCCc3c[nH]c4ccccc34)c3ncn(C(C)C)c3n2)c1 : 98.2%

Can you give me viability, T/C for all of these, one by one?
1. O=C(C=Cn1cnc(-c2cc(C(F)(F)F)cc(C(F)(F)F)c2)n1)NNc1cnccn1 + Cc1ccccc1N=Nc1ccc(NC(=O)c2ccnn2C)c(C)c1
2. CCN(c1cc(-c2ccc(CN3CCOCC3)cc2)cc(C(=O)NCc2c(C)cc(C)[nH]c2=O)c1C)C1CCOCC1 + CC(CO)NC(=O)c1cc(-c2ccc(Cl)cc2)nn(-c2cnn(C)c2)c1=O
3. O=C(C=Cn1cnc(-c2cc(C(F)(F)F)cc(C(F)(F)F)c2)n1)NNc1cnccn1 + CC(CO)NC(=O)c1cc(-c2ccc(Cl)cc2)nn(-c2cnn(C)c2)c1=O

78.1%
100%
82.5%

---

Tested on: 699152-130-R-J1-PDC complex spheroid growth
Experiment: Anticancer human tumor 699152-130-R-J1-PDC cell line growth inhibition [AhR];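 further: compound exposure lasted 7 days after spheroids had grown for 3 days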
Details: second compound 0.316 µM; first compound 0.1 µM; active compounds read low
Description: Multicellular complex tumor spheroid response to aryl hydrocarbon receptor antagonists in combination with a variety of drugs and investigational agents in selected tumor cell lines […] Compounds. […] If the clinical Cmax for an agent had not been determined, the highest concentration tested was 10 microM (Table 1). […]
quantityName: viability, T/C (%)
Numbers only, in %.

O=C(c1cc(Cc2n[nH]c(=O)c3ccccc23)ccc1F)N1CCN(C(=O)C2CC2)CC1 + CC(CO)NC(=O)c1cc(-c2ccc(Cl)cc2)nn(-c2cnn(C)c2)c1=O : 88.3
COc1cc(C2c3cc4c(cc3C(OC3OC5COC(C)OC5C(O)C3O)C3COC(=O)C23)OCO4)cc(OC)c1O (stereo not drawn) + CC(CO)NC(=O)c1cc(-c2ccc(Cl)cc2)nn(-c2cnn(C)c2)c1=O : 93.7

Here is the next item to consider.
Would you kindly share the measured viability, T/C for COc1cccc2c1C(=O)c1c(O)c3c(c(O)c1C2=O)CC(O)(C(=O)CO)CC3OC1CC(N)C(O)C(C)O1 (stereo not drawn) + Cc1cncc(-c2nc(NCCc3c[nH]c4ccccc34)c3ncn(C(C)C)c3n2)c1 ? 58.7
